tested on: ATP; assay: switch fluorescence ratio, 500 uM ATP over buffer (Cy3 cluster intensity, sum of 5 cycles each) (fold (ratio)); higher = stronger signal-on switching upon ATP binding; sequences stand for … in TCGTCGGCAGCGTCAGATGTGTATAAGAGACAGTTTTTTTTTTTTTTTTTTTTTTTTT…TC; conditions: aptamer strand: ATP DNA aptamer (quencher-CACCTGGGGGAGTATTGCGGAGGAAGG + anchor), 100 nM annealed; ATP concentration: 500 uM;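 also: ATP exposure 15 min at 22 °C before imaging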
value-kind: switch fluorescence ratio
Could you respond with only the numeric value?

>>> experimental_value("AAGCGGCTTC")
0.988
>>> experimental_value("AGTGTCGCCT")
0.985
>>> experimental_value("CAAGTCCATT")
1.01

[ask] Value lookup for switch fluorescence ratio; key = TTGAATAAGA
[reply] 1
